Where these numbers come from: paper PMC9482650

# subjectOfTest: T1, GIPC1, O14908
# T1 sequence (O14908 128-223, limits assumed, looked up): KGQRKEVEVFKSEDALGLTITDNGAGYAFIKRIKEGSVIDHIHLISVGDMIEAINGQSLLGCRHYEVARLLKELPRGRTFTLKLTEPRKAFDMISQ
# testName: holdup assay
# Set-up: key: below the threshold = too weak to quantify, mostly under pKd 3.1 to 4
# experimentalContext: plain residues with an end cap or a label only (N-terminal biotin on a linker: ttds)
observable: pKd

{"binder": "SVWLRKETRV [CYSLTR2, Q9NS75]", "result": "below the threshold"}
{"binder": "SRPQRTQTQV [HPV67-E6, A4U7F2]", "result": "below the threshold"}
{"binder": "STLTIFETAL [ABCC4, O15439]", "result": 4.1}
{"binder": "PKTPPTDTSV [KIR3DL3, Q8N743]", "result": "below the threshold"}
